# systemName: TAS2R1 (Homo sapiens, UniProt Q9NYW7)
# Sequence (Q9NYW7 whole entry): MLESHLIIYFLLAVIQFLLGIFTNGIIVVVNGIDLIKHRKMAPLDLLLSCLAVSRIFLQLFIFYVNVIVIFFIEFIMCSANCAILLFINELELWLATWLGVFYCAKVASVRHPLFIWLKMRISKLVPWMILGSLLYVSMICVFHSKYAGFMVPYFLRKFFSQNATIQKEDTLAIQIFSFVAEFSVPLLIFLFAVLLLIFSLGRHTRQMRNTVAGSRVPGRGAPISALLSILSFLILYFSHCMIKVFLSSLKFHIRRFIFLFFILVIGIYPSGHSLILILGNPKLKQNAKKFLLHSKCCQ
# experimentNotes: Calcium mobilization assay, HEK293T-Gα16gust44 cells expressing TAS2R1
# testParameters: maximal concentration tested: sucralose 100 mM, neotame 30 µM, Ace-K 300 mM, RebA 4 mM, RebM 4 mM, mogroside V 5 mM, erythritol 200 mM, D-allulose 500 mM, thaumatin 100 mM

{"columns": ["compound", "Response of TAS2R1"],
 "data": [
  ["O=C(CO)[C@H](O)[C@H](O)[C@H](O)CO", "−"],
  ["C=C1C[C@@]23CC[C@H]4[C@@](C)(CCC[C@@]4(C)C(=O)O[C@@H]4O[C@H](CO)[C@@H](O)[C@H](O[C@@H]5O[C@H](CO)[C@@H](O)[C@H](O)[C@H]5O)[C@H]4O[C@@H]4O[C@H](CO)[C@@H](O)[C@H](O)[C@H]4O)[C@@H]2CC[C@]1(O[C@@H]1O[C@H](CO)[C@@H](O)[C@H](O[C@@H]2O[C@H](CO)[C@@H](O)[C@H](O)[C@H]2O)[C@H]1O[C@@H]1O[C@H](CO)[C@@H](O)[C@H](O)[C@H]1O)C3 [RebM, Rebaudioside M]", "−"],
  ["CC1=CC(=O)NS(=O)(=O)O1", "−"],
  ["COC(=O)[C@H](Cc1ccccc1)NC(=O)[C@H](CC(=O)O)NCCC(C)(C)C", "−"]
]}
